- assay_target: CypF (Homo sapiens (Human))
- Sequence (P30405 30-207): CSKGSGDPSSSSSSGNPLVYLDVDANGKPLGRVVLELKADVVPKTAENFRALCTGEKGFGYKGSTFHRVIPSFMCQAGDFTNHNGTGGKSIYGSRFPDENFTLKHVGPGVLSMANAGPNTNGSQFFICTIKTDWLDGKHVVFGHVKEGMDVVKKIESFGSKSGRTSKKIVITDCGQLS
- test_description: Inhibitor binding to cyclophilin proteins by SPR, CypF
- assay_context: 1:1 binding model
Starred links: 1 amine or outer side, 2 acyl side, 3 side chain; linkers in the order of their positions; H or OH if unused. Non-standard residues stand in square brackets, D forms with d. Residues, ends and D or L forms follow the SMILES beside them. X5 = C[C@H](COC(=O)N1CCN(C)CC1)[C@@H](C(=O)[*:2])N(C)[*:1]; X34 = C[C@H](COC(=O)N1CCOCC1)[C@@H](C(=O)[*:2])N(C)[*:1]; X46 = C[C@H](CN1CC2CCC(C1)O2)[C@@H](C(=O)[*:2])N(C)[*:1]; MeBmt = C/C=C/C[C@@H](C)[C@@H](O)[C@H](NC)C(=O)O; NMeL = CN[C@@H](CC(C)C)C(=O)O; NMeV = CN[C@H](C(=O)O)C(C)C; dNMeA = CN[C@H](C)C(=O)O; Abu = CC[C@H](N)C(=O)O
Mark T only when CypF Kd stays strictly below 1 nM. Values equal to the cut-off are F.

Take a look at these entries with their results.
| compound | class_assignment |
| --- | --- |
| C/C=C/C[C@@H](C)[C@@H](O)[C@H]1C(=O)N[C@@H](CC)C(=O)N(C)[C@H](C)C(=O)N(C)[C@@H]([C@H](C)COC(=O)N2CCOCC2)C(=O)N[C@@H](C(C)C)C(=O)N(C)[C@@H](CC(C)C)C(=O)N[C@@H](C)C(=O)N[C@H](C)C(=O)N(C)[C@@H](CC(C)C)C(=O)N(C)[C@@H](CC(C)C)C(=O)N(C)[C@@H](C(C)C)C(=O)N1C [Compound 2.5.7] (cyclo([MeBmt][Abu][dNMeA][X34]V[NMeL]A[dA][NMeL][NMeL][NMeV])) | F |
| C/C=C/C[C@@H](C)[C@@H](O)[C@H]1C(=O)N[C@@H](CC)C(=O)N(C)[C@H](C)C(=O)N(C)[C@@H]([C@H](C)COC(=O)N2CCN(C)CC2)C(=O)N[C@@H](C(C)C)C(=O)N(C)[C@@H](CC(C)C)C(=O)N[C@@H](C)C(=O)N[C@H](C)C(=O)N(C)[C@@H](CC(C)C)C(=O)N(C)[C@@H](CC(C)C)C(=O)N(C)[C@@H](C(C)C)C(=O)N1C [Compound 2.5.9] (cyclo(A[dA][NMeL][NMeL][NMeV][MeBmt][Abu][dNMeA][X5]V[NMeL])) | T |
| C/C=C/C[C@@H](C)[C@@H](O)[C@H]1C(=O)N[C@@H](CC)C(=O)N(C)[C@H](C)C(=O)N(C)[C@@H]([C@H](C)CN2CC3CCC(C2)O3)C(=O)N[C@@H](C(C)C)C(=O)N(C)[C@@H](CC(C)C)C(=O)N[C@@H](C)C(=O)N[C@H](C)C(=O)N(C)[C@@H](CC(C)C)C(=O)N(C)[C@@H](CC(C)C)C(=O)N(C)[C@@H](C(C)C)C(=O)N1C [Compound 2.5.3] (cyclo([MeBmt][Abu][dNMeA][X46]V[NMeL]A[dA][NMeL][NMeL][NMeV])) | F |

Moving on to another compound below.
Does the reported CypF Kd of the following compound sit strictly below 1 nM? CCCC[C@@H](C)[C@@H](O)[C@H]1C(=O)N[C@@H](CC)C(=O)N(C)[C@H](C)C(=O)N(C)[C@@H]([C@@H](C)CN2CCO[C@H](COC)C2)C(=O)N[C@@H](C(C)C)C(=O)N(C)[C@@H](CC(C)C)C(=O)N[C@@H](C)C(=O)N[C@H](C)C(=O)N(C)[C@@H](CC(C)C)C(=O)N(C)[C@@H](CC(C)C)C(=O)N(C)[C@@H](C(C)C)C(=O)N1C
T

All figures here come from patent US9566312B2.
